assay: chemical genetic growth profiling, strain panel (AID 1159580);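 further: tested at 20 µM; growth read once vehicle control cultures reached saturation at 30 °C; 1 = growth at the plate median or of vehicle wells; lower values mean less growth of the strain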; conditions: S. cerevisiae deletion strains, growth OD, locus YBR171W, strain sec66, stronger effect = lower value
Screen size: about 5,500 compounds; about 2,000 (36%) were called active. Inconclusive results (about 18%) are left out. The list shows a part of the results.
Provide the reported normalized growth of each item.
The answer should be written as a number, with no unit following it.

Inquiry: Name the recorded normalized growth for C=C1C(=O)O[C@@H]2C3O[C@]3(C)CC/C=C(\C)CC[C@@H]12 (stereo partly drawn) .
Reply text: 0.975

Inquiry: Name the recorded normalized growth for `Cc1ccc(C)c(OCCCC(C)(C)C(=O)O)c1` .
Reply text: 0.948

Inquiry: Name the recorded normalized growth for NS(=O)(=O)c1cc2c(cc1Cl)NC(C(Cl)Cl)NS2(=O)=O (stereo not drawn) .
Reply text: 0.972

Inquiry: Name the recorded normalized growth for `Clc1cccc(Cl)c1NC1=NCCN1` .
Reply text: 0.977

Inquiry: Name the recorded normalized growth for CO/N=C(\C(=O)NC1C(=O)N2C(C(=O)O)=C(COC(N)=O)CSC12)c1ccco1 (stereo not drawn) .
Reply text: 0.958

Inquiry: Name the recorded normalized growth for `CC(C)(C)CC(C)(C)c1ccc(O)c(Cc2ccc(Cl)cc2Cl)c1` .
Reply text: 1.02

Inquiry: Name the recorded normalized growth for `NC(=O)c1cccc(N)c1` .
Reply text: 0.962

Inquiry: Name the recorded normalized growth for Nc1ccn(C2O[C@H](CO)[C@@H](O)[C@@H]2O)c(=O)n1 (stereo partly drawn) .
Reply text: 0.994

Inquiry: Name the recorded normalized growth for `CC(C)C(=O)Nc1ccc([N+](=O)[O-])c(C(F)(F)F)c1` .
Reply text: 1.04

Inquiry: Name the recorded normalized growth for `C[C@H]1COC2=C1C(=O)C(=O)c1c2ccc2c1CCCC2(C)C` .
Reply text: 0.808

Inquiry: Name the recorded normalized growth for O=C1[C@H](CCC(O)c2ccc(F)cc2)[C@@H](c2ccc(O)cc2)N1c1ccc(F)cc1 (stereo partly drawn) .
Reply text: 0.95

Inquiry: Name the recorded normalized growth for C=C1C(=O)OC2CC1C(OC(C)=O)C/C(C)=C/CC/C(C)=C/CC[C@]2(C)O (stereo partly drawn) .
Reply text: 0.994

Inquiry: Name the recorded normalized growth for `Nc1nc2ncc(=O)[nH]c2c(=O)[nH]1` .
Reply text: 0.983

Inquiry: Name the recorded normalized growth for `CC(=O)Oc1c(C)cccc1C(=O)O` .
Reply text: 1.02

Inquiry: Name the recorded normalized growth for `Oc1ccc(Cl)cc1Cc1cc(Cl)ccc1O` .
Reply text: 0.124

Inquiry: Name the recorded normalized growth for `COC(=O)C1=CCCN(C)C1` .
Reply text: 1.02

Inquiry: Name the recorded normalized growth for `Cc1coc2c1C(=O)C(=O)c1c-2ccc2c1CCCC2(C)C` .
Reply text: 0.916

Inquiry: Name the recorded normalized growth for `OCc1ccccc1O` .
Reply text: 1.01

Inquiry: Name the recorded normalized growth for COC(=O)[C@@H]1OC(=O)[C@H]2O[C@@]23[C@@]1(C)CCC1[C@@]2(C)CCC(=O)C(C)(C)C2C[C@@H](OC(C)=O)[C@]13C (stereo partly drawn) .
Reply text: 0.959

Inquiry: Name the recorded normalized growth for `O=C(O)CN1C(=O)c2cccc3cccc(c23)C1=O` .
Reply text: 0.968

Inquiry: Name the recorded normalized growth for `CCNC(=O)CC[C@H](N)C(=O)O` .
Reply text: 1

Inquiry: Name the recorded normalized growth for `CC1(C)O[C@H]2[C@H](O)C[C@](O)(C(N)=O)C[C@H]2O1` .
Reply text: 1.03

Inquiry: Name the recorded normalized growth for O=S1OCC2C(CO1)C1(Cl)C(Cl)=C(Cl)C2(Cl)C1(Cl)Cl (stereo not drawn) .
Reply text: 0.974

Inquiry: Name the recorded normalized growth for `O=C1C=C2C=C[C@@H]3C[C@@]2(O1)[C@H]1CCCCN31` .
Reply text: 0.99

Inquiry: Name the recorded normalized growth for `CO/N=C(\C(=O)N[C@@H]1C(=O)N2C(C(=O)O)=C(COC(C)=O)CS[C@H]12)c1csc(N)n1` .
Reply text: 0.993

Inquiry: Name the recorded normalized growth for CO/N=C(\C(=O)NC1C(=O)N2C(C(=O)OC(C)OC(C)=O)=C(COC(N)=O)CSC12)c1ccco1 (stereo not drawn) .
Reply text: 0.983

Inquiry: Name the recorded normalized growth for `Cc1ccc(Cl)c(Nc2ccccc2C(=O)O)c1Cl` .
Reply text: 0.817

Inquiry: Name the recorded normalized growth for `CN1C(C(=O)Nc2ccccn2)=C(O)c2ccccc2S1(=O)=O` .
Reply text: 0.922

Inquiry: Name the recorded normalized growth for CO[C@@]1(NC(=O)CSCC#N)C(=O)N2C(C(=O)O)=C(CSc3nnnn3C)CSC21 (stereo partly drawn) .
Reply text: 0.997

Inquiry: Name the recorded normalized growth for `CC(C)NC[C@H](O)COc1cccc2ccccc12` .
Reply text: 0.989

Inquiry: Name the recorded normalized growth for C[N+]1(C)C2CC(OC(=O)[C@@H](CO)c3ccccc3)CC1C1OC12 (stereo partly drawn) .
Reply text: 0.951

Inquiry: Name the recorded normalized growth for `CCCCC(=O)Oc1ccccc1C(=O)O` .
Reply text: 0.952

Inquiry: Name the recorded normalized growth for `CC(=O)N[C@@H](CS)C(=O)O` .
Reply text: 0.991

Inquiry: Name the recorded normalized growth for CC(C)NCC(O)COc1cccc2ccccc12 (stereo not drawn) .
Reply text: 1.01

Inquiry: Name the recorded normalized growth for `CCCCOC(=O)c1ccccc1C(=O)OCCCC` .
Reply text: 0.959

Inquiry: Name the recorded normalized growth for CC(C)NCC(O)c1cc(O)cc(O)c1 (stereo not drawn) .
Reply text: 0.998

Inquiry: Name the recorded normalized growth for O=C(C1CCCCC1)N1CC(=O)N2CCc3ccccc3C2C1 (stereo not drawn) .
Reply text: 1.01

Inquiry: Name the recorded normalized growth for CC1OC1P(=O)(O)O (stereo not drawn) .
Reply text: 1

Inquiry: Name the recorded normalized growth for `COC(=O)C[C@H]1C(C)(C)C(=O)[C@@H]2CC3=C(CC[C@]4(C)C3=CC(=O)O[C@H]4c3ccoc3)[C@@]1(C)C2=O` .
Reply text: 0.947

Inquiry: Name the recorded normalized growth for CCCCCCCCCCCCCCCC(=O)OC1C(SC)OC(C(NC(=O)C2CC(CCC)CN2C)C(C)Cl)C(O)C1O (stereo not drawn) .
Reply text: 0.961

Inquiry: Name the recorded normalized growth for `Cc1cccc(C)c1NC1=NCCCS1` .
Reply text: 1.02

Inquiry: Name the recorded normalized growth for `CCCCCCOc1ccccc1C(N)=O` .
Reply text: 0.857

Inquiry: Name the recorded normalized growth for `C=C1C(=O)O[C@@H]2C[C@@]3(C)CCC[C@H](C)C3=C[C@H]12` .
Reply text: 0.837

Inquiry: Name the recorded normalized growth for CC(C)(Oc1ccc(C2CC2(Cl)Cl)cc1)C(=O)O (stereo not drawn) .
Reply text: 0.996

Inquiry: Name the recorded normalized growth for `COc1c(OC)c2occc2c2oc(=O)ccc12` .
Reply text: 0.973

Inquiry: Name the recorded normalized growth for `CCCCOC(=O)c1ccc(N)cc1` .
Reply text: 0.884

Inquiry: Name the recorded normalized growth for `Cn1c(=O)c2[nH]cnc2n(C)c1=O` .
Reply text: 1.04

Inquiry: Name the recorded normalized growth for `O=c1cc(-c2ccccc2O)oc2cc(O)ccc12` .
Reply text: 0.951
